- tested target: CCR2 (Homo sapiens, UniProt P41597)
- Sequence (P41597 1-360 isoform P41597-2): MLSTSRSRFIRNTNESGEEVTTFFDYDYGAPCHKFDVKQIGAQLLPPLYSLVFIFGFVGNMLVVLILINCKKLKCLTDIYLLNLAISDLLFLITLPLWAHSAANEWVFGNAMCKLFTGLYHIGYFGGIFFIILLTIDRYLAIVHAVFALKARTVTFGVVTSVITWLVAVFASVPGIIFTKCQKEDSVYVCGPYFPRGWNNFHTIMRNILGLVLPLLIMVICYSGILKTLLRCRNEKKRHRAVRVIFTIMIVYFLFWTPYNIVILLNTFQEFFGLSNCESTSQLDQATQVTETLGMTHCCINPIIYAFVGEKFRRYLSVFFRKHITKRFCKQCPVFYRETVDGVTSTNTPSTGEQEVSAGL
- assay procedure: Inhibition of MCP-1 induced Ca-flux in human THP-1 cells
- Assay type: cell-based
- Parameters: host or cells: THP-1 (human monocytic cell line)
- run conditions: -log IC50 (molar), inhibition of specific MCP-1 (10^-7 M hMCP-1) induced Ca2+ flux, FLIPR
- Description: Inhibition of MCP-1 Induced Ca-Flux in Human THP-1 Cells MCP-1 binding to the CCR2 receptor induces a rapid and transient intracellular release of Ca^2+ (secondary messenger) in several cell lines (Charo et al, PNAS 1994). Free Ca^2+ levels can be measured using a Ca^2+ sensitive dye. When the CCR2 receptor is blocked with a CCR2 receptor antagonist, the MCP-1 induced release of Ca^2+ is inhibited. […]
This listing pairs compounds with measured IC50.
State just the number; it will be interpreted in nM.

Look over these answered cases.
compound="CCC(c1ccc(F)c(F)c1)n1c(S)nc(-c2ccno2)c1C(=O)OC (stereo not drawn) [Compound 7]" value_unit=nM endpoint_result=11.7
compound="CCC(c1ccc(Cl)c(Cl)c1)n1c(C(=O)OC)c(-c2cnccn2)[nH]c1=S (stereo not drawn) [Compound 34]" value_unit=nM endpoint_result=25.1

Proceeding to the next compound to report its IC50.
Quick one: IC50 of CCC(c1ccc(Cl)c(Cl)c1)n1c(C(=O)OC)c(-c2ccno2)[nH]c1=S (stereo not drawn) [Compound 26] ?
7.94

====

- tested target: CCR2 (Homo sapiens, UniProt P41597)
- assay procedure: Inhibition of MCP-1 induced Ca-flux in human THP-1 cells
- Assay type: cell-based
- Design: host or cells: THP-1 (human monocytic cell line)
- run conditions: -log IC50 (molar), inhibition of specific MCP-1 (10^-7 M hMCP-1) induced Ca2+ flux, FLIPR
This listing pairs compounds with measured pIC50.
pIC50 is a log-scale quantity: -log10 of the concentration expressed in molar.

Look over these answered cases.
compound="CCC(c1ccc(Cl)c(Cl)c1)n1c(C(=O)OC)c(-c2cc(C)on2)[nH]c1=S (stereo not shown)" endpoint_result=7.80
compound="CCC(c1ccc(Cl)c(Cl)c1)n1c(S)nc(-c2nnco2)c1C(=O)OC (stereo not shown)" endpoint_result=7.45
compound="CCCC(c1ccc(Cl)c(Cl)c1)n1c(C(=O)OC)c(-c2nnc(C)o2)[nH]c1=S (stereo not shown)" endpoint_result=7.36

Proceeding to the next compound to report its pIC50.
Quick one: pIC50 of CCC(c1ccc(Cl)c(Cl)c1)n1c(C(=O)OC)c(-c2ccno2)[nH]c1=S (stereo not shown) [Compound 25] ?
7.88

====

- tested target: CCR2 (Homo sapiens, UniProt P41597)
- assay procedure: Chemotactic response of human PBMC to MCP-1
- Assay type: cell-based
- Set-up: Mononuclear cells from human heparinized peripheral blood (PBMC) were isolated; endogenous in cells; host or cells: human peripheral blood mononuclear cells
- run conditions: inhibition of migration of human PBMC to 30 ng/ml hMCP-1, 105 minutes
quantity: IC50 (nM)
State just the number; it will be interpreted in nM.

Look over these answered cases.
compound="CCC(c1ccc(Cl)c(Cl)c1)n1c(C(=O)OC)c(-c2cccnc2)[nH]c1=S (stereo not drawn)" tested_target="CCR2 (Homo sapiens, UniProt P41597)" quantity=IC50 endpoint_result=474
compound="CCC(c1ccc(Cl)c(Cl)c1)n1c(C(N)=O)c(-c2nnc(C)o2)[nH]c1=S (stereo not drawn)" tested_target="CCR2 (Homo sapiens, UniProt P41597)" quantity=IC50 endpoint_result=244

Quick one: IC50 of CCC(c1ccc(Cl)c(Cl)c1)n1c(C(=O)OC)c(-c2ccccc2)[nH]c1=S (stereo not drawn) ?
214

Quick one: IC50 of CCC(c1ccc(F)c(F)c1)n1c(C(=O)OC)c(-c2ccno2)[nH]c1=S (stereo in doubt) ?
108

Quick one: IC50 of CCC(c1ccc(Cl)c(Cl)c1)n1c(C(=O)OC)c(-c2cc(C)on2)[nH]c1=S (stereo not drawn) ?
367

Quick one: IC50 of CCC(c1ccc(Cl)c(Cl)c1)n1c(C(=O)O)c(-c2cccs2)[nH]c1=S (stereo not drawn) ?
24

====

This listing pairs molecules with measured melting point.

molecule="CCC(c1ccc(F)c(F)c1)n1c(C(N)=O)c(-c2nnc(C)o2)[nH]c1=S (stereo not shown)" endpoint_result="228 to 229 °C"
molecule="CCC(c1ccc(F)c(F)c1)n1c(C(=O)NCCO)c(-c2nnc(C)o2)[nH]c1=S (stereo not shown)" endpoint_result="165 to 166 °C"
molecule="COCC(c1ccc(F)c(F)c1)n1c(C(=O)OC)c(-c2nnc(C)o2)[nH]c1=S (stereo not shown)" endpoint_result="102.8 to 102.9 °C"

Proceeding to the next molecule to report its melting point.
Quick one: melting point of CCC(c1ccc(Cl)c(Cl)c1)n1cc(-c2sc(N)nc2C)nc1S.Cl (stereo not shown) ?
301.8 to 303.3 °C
